Test system: MS2 coat protein
Assay: apparent KD of MS2 coat protein, switch OFF state (with FMN for OFF switches, without FMN for ON switches); designed switch direction (-1 OFF switch, 1 ON switch): 1; higher = weaker reporter binding
Settings: FMN input: 0 or 200 uM; Eterna round: R93 (includes R88 designs)
In this section we review reported apparent KD of MS2 coat protein values for a set of sequences.
endpoint name: apparent KD of MS2 coat protein

AGAAAUAAAAGAGAGGAUAUCCAAAAUAAAACAUGAGGAUCACCCAUGUCUACGAAAGUAGGAUGGGAGAAGGCUCAAAAUAAAG [80% More Helter Skelter 2 + Hairpin]; 14.8 nM
AACAAUCUAUCUGAGGAUAUGUGUCGAAAGACAUGAGGAUCACCCAUGUAAAAACAUGAAAAAACACAGAAGGCAGAUAGAUUGA [SS2: 1146]; 81.5 nM
AGUAAACAUGAGGAUCACCCAUGUGGUGGCCCAUGAGGAUAUCCAUGCGCAAUGCGCAUAGGAGAAGGCAUAGCCA [Enenerla]; 52.6 nM
CCUAGGAAGAGAGAGGAUAUCCAAAGGAAAACAUGAGGAUCACCCAUGUAAAAGGUAGGAAAUUGGGAGAAGGCUCAAGAGAGAG [salish99-ss2-088]; 23.9 nM
AAAAAACAUGAGGAUCACCCAUGUGAGAACAUGGGAGGAUAUACGAGGACGAGAGUCAAGGUAGAAGGCCUAAGAA [Garnet 68]; 22.8 nM
AUAAAUAAAGAUCAGGAUAUUAUAAAGAUAACAUGAGGAUCACCCAUGUAAAACAAAAUUAUGGGUAAGAAGGGAUCAAAUAAAU [SS2 M 20]; 184 nM
CGGAAGGAGAGAGAGGAUAUCCAAAGGAAAACAUGAGGAUCACCCAUGUAGAAGGUAGGAAAUUGGGAGAAGGCUCAAGAGAGUG [salish99-ss2-121]; 44.6 nM
AGAAAACAUGAGGAUCACCCAUGUCAGAAAUGGCAAGGAUAUAGAAAAGAAAAAGAAAAACUAGAAGGUGCAAAAG [Meechl SS1 R2 m2]; 153 nM
GAAAAACAUGAGGAUCACCCAUGUAGAAAUAUGGGAGGAUAUACAAAGACGAAAGUCAAAGUAGAAGGCCUGAAGA [Mat - Same State 1 - JL mod - D91]; 73.1 nM
AAAGACAUAGUUCAGGAUAUGGUAAUAGUCACAUGAGGAUCACCCAUGUGCAUUUAUAUGCGCGAUCAGAAGGGAGGUAGAUAUA [SameState2 Malc#18]; 17.7 nM
AUAAAAGAAAGGCAGGAUAUCCAAAGAAAAACAUGAGGAUCACCCAUGUAAAGAAAGAAAAAGUGGGAGAAGGGCCAAAAGAAUA [73%, More Fisker Same State 2, D3, 3]; 27.6 nM
AGGAAACAUGAGGAUCACCCAUGUAAAUAUGGGCGAGGAUAUCGAAAGAAAAGAAAGAAACGAGAAGGCGCAAAAG [GU on the end]; 295 nM
CGAGAGGAGAGAGAGGAUAUCCAAAGGAAAACAUGAGGAUCACCCAUGUAGAAGGUAGGAGAUUGGGAGAAGGCUCAAGAAGAAG [salish99-ss2-159]; 26 nM
AACAAUCUAUCUGAGGAUAUCAUGUCAAAGACAUGAGGAUCACCCAUGUCCAGGAAAACUGGUCAUGAGAAGGCAGAUAGAUUGA [SS2: 1111]; 887 nM
UAAUAAUAAACCAAGGAUAUGGAGUAUAGCACAUGAGGAUCACCCAUGUGUAGCGUGGGUUAGUACCAGAAGGUGGAGUGAAAUG [JR_SS002_Sub1001]; 82.8 nM
CGGUAAGAGAGAGAGGAUAUCCAAAGGAAAACAUGAGGAUCACCCAUGUAGAAGGUAGGAAAUUGGGAGAAGGCUCAAGAGAGAG [salish99-ss2-133]; 61.7 nM
AACAAUCUAUCUGAGGAUAUGUGUCGAAAGACAUGAGGAUCACCCAUGUGAAAACAUGAAAAAACACAGAAGGCAGAUAGAUUGA [SS2: 1147]; 70.6 nM
AGAAAUAAAAGAGAGGAUAUCCAAAAGAAAACAUGAGGAUCACCCAUGUGAAACAAAACAAAAUGGGAGAAGGCUCAAAAUAAGA [Topaz 16]; 137 nM
AAAAUACAUGAGGAUCACCCAUGUGAAAAUAUGGGAGGAUAUACGAAAAAUAAAUAAAACGUAGAAGGCCUAAAAA [SS! 1 MT 2]; 165 nM
AAAAAAAAAAGUCAGGAUAUGCAGGGCGGGACAUGAGGAUCACCCAUGUGGCGGAAAAAAAAAAAGCAGAAGGGACGAAUAAAAAA [William Edwards Deming]; 42.8 nM
AGAAUAAAAAGACAGGAUAUCCAAAAGAAAACAUGAGGAUCACCCAUGUAAAAAAAAAUAAAAUGGGAGAAGGGUCAAAAUAAAG [Mat - Same State 2 - JL mod - D69]; 44 nM
GUGGACGUAGGAUAGGAUAUAUGAAUAAUUACAUGAGGAUCACCCAUGUCCAUUUAUAUGGGAACAUAGAAGGGUUGUGGUUAAC [Mat - Same state - Malcolm Mod - D132]; 602 nM
GUGGUGUAGGUACAGGAUAUGUUGCUCGUAACAUGAGGAUCACCCAUGUACCUAUGAGAUUAAAUGCAGAAGGGUGCACACCACG [Alage]; 118 nM
CGAAAGGAGAGAGAGGAUAUCCAAAGGAAAACAUGAGGAUCACCCAUGUAGAAGGUAGGAGAUUGGGAGAAGGCUCAAGCAAAAC [salish99-ss2-157]; 18.6 nM

----------
Tested on: MS2 coat protein
Assay: apparent KD of MS2 coat protein; higher = weaker reporter binding
Conditions: Eterna round: R107; input ligand: tryptophan 2.4 mM
In this section we review reported apparent KD of MS2 coat protein values for a set of sequences.
endpoint name: apparent KD of MS2 coat protein

UUAAUCUUUAUUGAAAACAAUAAAGCAGAAGGAGCGUGAUAAAACACAGGUAGGUCGCUGAAGGGAACAUGAGGAUCACCCAUGU [AstrosSSArgA#13]; 24.1 nM
AUUAUCAUGGUCAUAUAUAUAUCGUCAGAUACCAGACUAGAUAUAGUCCCUUGGCAGCUGUUACAUGAGGAUCACCCAUGUUAUA [JR_ExcTheophyA_Sub015]; 88.7 nM
GGGUGCGGGAUAGAUACCAGUGCCUUAAAAUAGGCACAUGAGGAUCACCCAUGUACCGGGCGCCCUUGGCAGCUAGUACCAUCCA [Edanrele]; 147 nM

----------
Tested on: MS2 coat protein
Test: apparent KD of MS2 coat protein; designed switch direction (-1 OFF switch, 1 ON switch): -1; higher = weaker reporter binding
Conditions: Eterna round: R95; input ligand: microRNA oligo, concentration not stated
Is apparent KD of MS2 coat protein at least 80 nM? Then 1 (yes). If not, 0 (no).

GGAAAACAUGAGGAUCACCCAUGUAAGGAUAUGCAAAAGGAUAUAGAAGGAAAAAUAAGCAGAAGGUACAAAGG [salish99-ex1_r3_097] (puzzle: Exclusion 1); 0 (no)
CUGAGCAGACGGAGAUCCAACAUGAGGAUCACCCAUGUCUCAAAAGCUUCUUGCUCGUCUUAUCCUCCUCUGUUCUC [Maeronqu] (puzzle: Sensor v3, turn-off variant 1); 1 (yes)
AAUAAUAAGGAGGAUAUCGUAACCGAAAGGUUACGAGAAGGCCUAACAUGAGGAUCACCCAUGUUCCUCAAUAA [Mat - Exclusion 6 - Eli Mod - D56] (puzzle: Exclusion 6); 1 (yes)
UUAUACGUUGAGGAUAUGCGAUUUAGUAUAGUUGCAGAAGGCGAUACAUGAGGAUCACCCAUGUUUAUGGGCAU [LRO-Ex6-07] (puzzle: Exclusion 6); 1 (yes)
UGGUAACAUGAGGAUCACCCAUGUCAGGAUAUCAGUAAGAAUAGAUUAGAUUAGAAUAUGAGAAGGGACUAUAU [Excluse me! 4 - Jieux - Exclusion 1] (puzzle: Exclusion 1); 0 (no)
UCAUGUUUAGAGGAUAUGAUUACUCUAGAGUGAUCAGAAGGCUAGACAUGAGGAUCACCCAUGUCAGAACAUGA [Exclusion 6 - B - 16:b] (puzzle: Exclusion 6); 0 (no)
CCUCAGUAAGGAUAUCAGCUUAUAAGGUUGGUAAUGAGAGCUGAGAAGGUACAUGAGGAUCACCCAUGUUAGUU [JL Zatite mod 6] (puzzle: Exclusion 4); 0 (no)
AAGUACCGUCACGAUAGUGAUGGUACAACAAGCAAAUGUACAUGAGGAUCACCCAUGUCCUCUUUUGCUCGUCUUGU [Sensor 3 - 100] (puzzle: Sensor v3, turn-off variant 2); 0 (no)
GGAGCGGAAGGAUAUGCUGCGGGAUUGAAUGGAAAGAAAAUACAUGAGGAUCACCCAUGUAGAAGGUCCGUGAA [Tiquxe] (puzzle: Exclusion 2); 0 (no)
AUAAAAUAGGAGGAUAUCGUAUCGGAAACGAUACGAGAAGGUCUAACAUGAGGAUCACCCAUGUUCCUCAAUAA [Mat - Exclusion 6 - Eli Mod - D46] (puzzle: Exclusion 6); 0 (no)
CCAUCGUGUGUGAGGAUAUGCUGGUCCUUGGAUCAGCAGAAGGCACAUGAGGAUCACCCAUGUGAAAACGAUGG [Mat - Exclusion 4 - JL Mod - D88] (puzzle: Brourd's mod of Exclusion 4); 0 (no)
UUCAGACAUGAGGAUCACCCAUGUGAGGAUAUGAUGCGAUCGUCGAAAGACGAUAGCAUCAGAAGGCACAUAUG [Fiskers Ex 1 - 17] (puzzle: Exclusion 1); 1 (yes)
CCCAGGGCAGGAUAUAGAGGGCGAAACAUGAGGAUCACCCAUGUGACCUCGGAACAGCUGCUAGAAGGGCCAAAUU [Beesquti] (puzzle: Exclusion 5); 0 (no)
UCGGCGCGAGGAUAUGCGGUUUGUGCUUCGGGCCCUCGCGUACAUGAGGAUCACCCAUGUAGAAGGCGCGCCGC [Apr-15 SS2-45] (puzzle: Exclusion 2); 0 (no)
GGUACUAACACGAAAGUGUUAGUACUAUAAGCUUGUGUUACAUGAGGAUCACCCAUGUCCUCAUAGGCUCGUCUUAU [JL-sv3-2.18 mat747 mod] (puzzle: Sensor v3, turn-off variant 2); 0 (no)
AGUACUAACACGAGAGUGUUAGUACUAUAAGCUUGUGUUACAUGAGGAUCACCCAUGUCCUCAUAAGCUCGUCUUAG [Mat - Sensor v3 - Turn-off var 2 - D67] (puzzle: Sensor v3, turn-off variant 2); 1 (yes)
CCCUCACAUGAGGAUCACCCAUGUCAGGAUAUCUAGUCAGACAGUGUAGCACUGCUGAAGAGAAGGGACGUAAA [Isinzare] (puzzle: Exclusion 1); 0 (no)
GCGAAAGCAAAACAAGUGAACAUGAGGAUCACCCAUGUCCUCAUUUGCUCGUCUUAUAAGCUAUGCGAAAGCAUAGC [Sensor 3, v1 - 9] (puzzle: Sensor v3, turn-off variant 1); 1 (yes)

The origin of these recorded values is the supplement of paper PMC9170038.
